Hi there, I'd appreciate the recorded inhibition for every entry that follows.
Molecular target: Lethal factor (Bacillus anthracis)
Test: Lethal factor protease inhibitors, Bacillus anthracis, multiplex microsphere cleavage assay, validation set (AID 588461)
Details: flow cytometry, at 10 µM, stronger effect = higher value
Give bare numbers, in %.

Worked examples, 5 compounds total:
COc1ccc(C2CC(c3c(O)cc(C)oc3=O)=NCCS2)c(OC)c1 (stereo not given) :: 4.3
O=C(N1CCCC1)C12CC3CC(C1)CC(C(=O)N1CCCC1)(C3)C2 :: -8
CC12CN3CC(C)(CN(C1)C3c1cccs1)C2O (stereo not given) :: 7.5
O=c1[nH]c2ccccc2n1C1CCN(CCCC(c2ccc(F)cc2)c2ccc(F)cc2)CC1 :: -3
O=C(CCCN1CC=C(n2c(=O)[nH]c3ccccc32)CC1)c1ccc(F)cc1 :: -5.4

Value sought for every listed compound: inhibition.
1. CC(C)COC(=O)C1C(=O)CC(C)(O)C(C(=O)OCC(C)C)C1c1cccnc1 (stereo not given)
2. COc1ccc2nc(Nc3nc(CSc4ccc(C)cc4)cc(=O)[nH]3)nc(C)c2c1
3. COc1ccccc1/C=C/C(=O)OCCN1CCOCC1
4. CCN1C(=O)C(CC(=O)Nc2ccc(F)cc2)N(Cc2ccc3c(c2)OCO3)C1=S (stereo not given)
5. CC(=O)Oc1ccc(C(c2ccc(OC(C)=O)cc2)c2ccccn2)cc1

[3.5, 2, -6.7, -6.1, -2.2]

----------
Experiment: RPL19A-GFP modulators, yeast TOR pathway, confirmation, cell-based, S. cerevisiae, flow cytometry, cherry picks, mother/daughter gates (AID 2270)
Conditions: S. cerevisiae RPL19A-GFP strain, 3 h, measured here: mother cell gate, at 10 µM, stronger effect = lower value, 100 = same GFP as DMSO wells
Reported property: GFP response vs DMSO (%)
Numbers only, in %.

O=C1NC(=O)N(CCC2=CCCCC2)C(=O)/C1=C/c1cccs1 :: 97.6
O=C1NC(=O)N(Cc2ccco2)C(=O)/C1=C\c1ccc(-c2ccc(F)cc2)o1 :: 94
O=C1NC(=S)N(c2ccccc2)C(=O)/C1=C/c1ccco1 :: 91.4

Value sought for every listed compound: GFP response vs DMSO.
1. O=C1CN=C(c2ccccc2F)c2cc(Cl)ccc2N1
2. C#CCOc1cc(C2C3=C(COC3=O)Nc3cc4c(cc32)OCO4)ccc1OC (stereo not given)
3. O=C1NC(=O)N(CCc2ccc(F)cc2)C(=O)/C1=C/c1ccco1
4. Cc1ccc(N2C(=O)NC(=O)/C(=C\c3cn(CC(=O)O)c4ccccc34)C2=O)cc1
5. CCCCn1c(=O)c(C(=O)Nc2ccsc2C(=O)OC)c(O)c2ccccc21
6. CCN(CC)c1ccc(C=C2C(=O)NC(=S)NC2=O)cc1

1: 99.1; 2: 103; 3: 97; 4: 101; 5: 100; 6: 90

Consider the compound shown here: "Nc1ccc2ccc3cccc[n+]3c2c1" What is its recorded GFP response vs DMSO? 110

----------
Test: LAP4-GFP expression modulators in yeast, confirmation, cell-based, cherry picks, flow cytometry, mother/daughter gates (AID 2271);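 also: ratio of sample to DMSO plate mean so 100% equals DMSO level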
Conditions: S. cerevisiae LAP4-GFP strain, 3 h, measured here: mother cell gate response, at 10 µM, stronger effect = higher value
Reported property: GFP response relative to DMSO (%)
One number for each entry, in %.

Worked examples, 6 compounds total:
C#CCOc1cc(C2C3=C(COC3=O)Nc3cc4c(cc32)OCO4)ccc1OC (stereo not drawn) :: 114
Cc1ccc(N2C(=O)NC(=O)/C(=C\c3cn(CC(=O)O)c4ccccc34)C2=O)cc1 :: 104
CC1(C)OC(c2ccccc2)=C/C(=C/C=C2C(=O)NC(=S)NC2=O)O1 :: 160
C[C@H](O)[C@H]1CC[C@H]2[C@@H]3CCC4=CC(=O)CC[C@]4(C)[C@H]3CC[C@]12C :: 120
Nc1ccc(N=Nc2ccccc2)cc1 :: 111
O=C1NC(=O)N(CCc2ccc(F)cc2)C(=O)/C1=C/c1cccs1 :: 155

Value sought for every listed compound: GFP response relative to DMSO.
1. O=C1NC(=O)N(c2ccccc2)C(=O)/C1=C/c1ccc(Sc2ccccc2)o1
2. C[C@]12CCC(=O)C(O)=C1CC[C@@H]1[C@@H]2CC[C@]2(C)C(=O)CC[C@@H]12

1: 170; 2: 103
